protocol.details: Pharmacokinetics of SL-01 and SL-02 in mice, intragastric
Assay type: in vivo
cond: both sexes, Kunming, mouse, plasma, po, SL-01 100 mg/kg intragastric, analyte SL-01, read-out: T1/2, SL-01 Administration Group (converted)
experimental.readout: half-life (min)
Report the figure in min without appending any unit label.

So for CCCCCCCCCCCCOC(=O)c1nccnc1C(=O)Nc1ccn([C@@H]2O[C@H](CO)[C@@H](O)C2(F)F)c(=O)n1 , the logged half-life turned out to be 31.1

* * *

protocol.details: Pharmacokinetics of SL-01 and SL-02 in mice, intragastric
Format: in vivo
cond: both sexes, Kunming, mouse, plasma, po, SL-01 100 mg/kg intragastric, analyte SL-01, read-out: MRT0-t, SL-01 Administration Group
experimental.readout: MRT last (min)
Answer format: numeric, min implied, no suffix.

Measured MRT last of CCCCCCCCCCCCOC(=O)c1nccnc1C(=O)Nc1ccn([C@@H]2O[C@H](CO)[C@@H](O)C2(F)F)c(=O)n1 : 21.6
